Sourced from paper PMC9122904

Molecular target: T1, Spy_(29-124) (UniProt P77754 52-147)
T1 construct: also called termini-free Spy; source: E. coli BL21 (DE3), purified (Ni-NTA, cation exchange, SEC); not shown: His6, N-terminal, cleaved; SUMO, N-terminal, cleaved
T1 sequence (looked up): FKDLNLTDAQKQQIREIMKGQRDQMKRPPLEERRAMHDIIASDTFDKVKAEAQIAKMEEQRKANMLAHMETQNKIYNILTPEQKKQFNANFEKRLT
Assay: BLI; Octet RED96; client biotinylated and loaded on streptavidin sensors; Spy or Spy variant in solution at 0.25, 0.5, 1, 1.5 and 2 μM; 40 mM HEPES, 150 mM NaCl, pH 7.5; Kd calculated as koff/kon
Details: both partners purified
readout label: Kd

# get_value(readout='Kd', item= Im7 H40W L53A I54A (natural protein, biotin (EZ-link NHS-biotin, 1:1 molar ratio of biotin to protein), Im7 (colicin E7 immunity protein) with H40W L53A I54A; Spy was made with an N-terminal His6-SUMO tag that was cleaved; also called Im7AAW; partially folded client; source: purified by a similar procedure to Spy) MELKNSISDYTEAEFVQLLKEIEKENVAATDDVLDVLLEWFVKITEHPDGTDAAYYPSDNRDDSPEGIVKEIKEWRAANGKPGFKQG ) 323 nM
